assay target: Angiotensin-converting enzyme (Homo sapiens, UniProt P12821)
Sequence (P12821 whole entry): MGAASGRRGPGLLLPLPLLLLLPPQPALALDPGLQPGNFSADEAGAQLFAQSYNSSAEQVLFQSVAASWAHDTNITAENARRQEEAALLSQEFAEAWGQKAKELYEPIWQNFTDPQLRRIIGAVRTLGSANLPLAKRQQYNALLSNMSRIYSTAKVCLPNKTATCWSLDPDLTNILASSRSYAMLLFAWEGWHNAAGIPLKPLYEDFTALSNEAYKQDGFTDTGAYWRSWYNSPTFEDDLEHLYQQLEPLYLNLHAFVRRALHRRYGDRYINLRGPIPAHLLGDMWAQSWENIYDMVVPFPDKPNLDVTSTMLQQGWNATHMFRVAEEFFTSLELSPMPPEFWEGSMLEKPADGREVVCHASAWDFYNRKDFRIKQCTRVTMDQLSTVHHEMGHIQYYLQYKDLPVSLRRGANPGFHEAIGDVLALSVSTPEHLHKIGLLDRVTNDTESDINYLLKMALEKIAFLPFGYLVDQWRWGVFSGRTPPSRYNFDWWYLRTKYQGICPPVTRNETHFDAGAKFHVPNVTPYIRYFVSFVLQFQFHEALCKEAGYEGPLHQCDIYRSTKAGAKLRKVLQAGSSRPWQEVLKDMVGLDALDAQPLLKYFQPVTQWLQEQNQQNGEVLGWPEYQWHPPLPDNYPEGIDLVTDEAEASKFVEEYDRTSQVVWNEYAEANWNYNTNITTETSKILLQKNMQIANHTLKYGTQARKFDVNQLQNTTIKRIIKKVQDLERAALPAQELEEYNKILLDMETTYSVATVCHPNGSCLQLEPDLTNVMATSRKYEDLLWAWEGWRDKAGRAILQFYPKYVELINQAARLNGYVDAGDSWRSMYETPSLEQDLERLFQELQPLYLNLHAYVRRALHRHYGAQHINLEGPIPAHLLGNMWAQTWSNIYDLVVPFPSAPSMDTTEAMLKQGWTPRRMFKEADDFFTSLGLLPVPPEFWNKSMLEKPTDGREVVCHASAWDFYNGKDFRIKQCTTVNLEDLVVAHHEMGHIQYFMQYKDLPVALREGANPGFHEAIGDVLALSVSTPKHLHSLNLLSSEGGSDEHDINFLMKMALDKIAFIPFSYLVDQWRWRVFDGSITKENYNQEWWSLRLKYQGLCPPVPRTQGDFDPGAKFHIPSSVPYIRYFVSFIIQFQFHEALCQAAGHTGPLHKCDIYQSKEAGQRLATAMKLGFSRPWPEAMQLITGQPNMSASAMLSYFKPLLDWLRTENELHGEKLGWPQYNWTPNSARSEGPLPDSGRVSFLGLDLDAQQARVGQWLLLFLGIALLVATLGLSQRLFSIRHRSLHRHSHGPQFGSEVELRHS
protocol details: Inhibitory activity against angiotensin converting enzyme (ACE)
Binary call on IC50 with cut-off 400 nM: strictly below means true (1), and equality or higher means false (0).

Prompt: Just wondering, is IC50 of NCCCC[C@H](OP(=O)(O)CCCCc1ccccc1)C(=O)N1C[C@H](O)C[C@H]1C(=O)O below 400 nM?
Completion: true (1)

Prompt: Quick check: does CC(S)C(=O)N[C@@H](Cc1c[nH]c2ccccc12)C(=O)O (stereo in doubt; form 1) have IC50 under 400 nM?
Completion: true (1)

Prompt: Is IC50 strictly under 400 nM for the entry O=C(CCS)OC(Cc1ccccc1)C(=O)O (stereo not given) ?
Completion: false (0)

Prompt: Take the compound O=C(O)[C@@H]1CCCN2C(=O)C[C@@H](CS)C(=O)N12 and say whether its IC50 is less than 400 nM.
Completion: true (1)

Prompt: I wonder whether O=C(O)[C@@H]1CCCN1CCCS has IC50 below 400 nM. Can you tell?
Completion: false (0)

This collection of values is drawn from ChEMBL document CHEMBL1126767.
